# target_under_test: Voltage-gated inwardly rectifying potassium channel KCNH2 (Homo sapiens) (UniProt Q12809)
# Sequence (Q12809 whole entry, looked up): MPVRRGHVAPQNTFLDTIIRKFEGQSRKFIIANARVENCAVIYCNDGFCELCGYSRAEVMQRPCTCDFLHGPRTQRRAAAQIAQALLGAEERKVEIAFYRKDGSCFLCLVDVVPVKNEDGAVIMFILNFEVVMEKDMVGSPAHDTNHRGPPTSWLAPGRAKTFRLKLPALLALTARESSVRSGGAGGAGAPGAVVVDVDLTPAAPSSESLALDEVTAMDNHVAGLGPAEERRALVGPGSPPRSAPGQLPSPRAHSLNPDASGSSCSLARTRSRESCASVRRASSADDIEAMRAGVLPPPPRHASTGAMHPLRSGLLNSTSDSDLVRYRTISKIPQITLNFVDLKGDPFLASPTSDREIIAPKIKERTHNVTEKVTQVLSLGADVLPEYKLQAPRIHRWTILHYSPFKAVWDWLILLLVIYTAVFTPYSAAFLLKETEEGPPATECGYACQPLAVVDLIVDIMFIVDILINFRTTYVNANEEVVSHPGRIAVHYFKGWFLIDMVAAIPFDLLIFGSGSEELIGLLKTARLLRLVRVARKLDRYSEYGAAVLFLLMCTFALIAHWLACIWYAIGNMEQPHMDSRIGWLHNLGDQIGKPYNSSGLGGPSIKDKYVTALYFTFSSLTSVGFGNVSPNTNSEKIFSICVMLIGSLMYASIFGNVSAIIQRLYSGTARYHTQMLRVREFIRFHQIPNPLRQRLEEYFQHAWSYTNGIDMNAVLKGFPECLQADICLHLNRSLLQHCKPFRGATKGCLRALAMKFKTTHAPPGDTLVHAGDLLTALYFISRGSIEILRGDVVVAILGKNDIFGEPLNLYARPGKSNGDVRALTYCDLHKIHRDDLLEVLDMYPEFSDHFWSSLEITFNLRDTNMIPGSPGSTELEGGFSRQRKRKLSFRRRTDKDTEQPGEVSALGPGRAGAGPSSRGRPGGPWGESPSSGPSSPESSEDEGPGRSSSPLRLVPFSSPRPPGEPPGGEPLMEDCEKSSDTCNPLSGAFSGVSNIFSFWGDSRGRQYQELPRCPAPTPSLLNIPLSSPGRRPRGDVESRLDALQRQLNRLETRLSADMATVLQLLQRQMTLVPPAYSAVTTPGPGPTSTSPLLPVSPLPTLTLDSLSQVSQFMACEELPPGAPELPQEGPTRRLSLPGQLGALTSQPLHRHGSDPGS
# method_summary: hERG protection against dofetilide inhibition, confirmation, cell-based, thallium flux, duplicate retest, dofetilide IC70 (AID 1835)
# test_parameters: hERG cell line, FluxOR thallium flux, dofetilide-blocked; at 10 µM
The campaign covered roughly 2,400 compounds. About 750 (31%) were called active.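 The calls were made as follows: active = median signal gain over dofetilide-blocked control wells reaching their mean plus 3 SD, so readout 1 at least 0; inactive = the rest.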 The list shows a part of the results.
Would you mind answering with one of these outcomes? active, inactive

[ask] Could you kindly confirm the outcome this assay logged for O=C(NC(=S)Nc1nc(-c2cccc([N+](=O)[O-])c2)cs1)c1ccccc1Cl ?
[reply] inactive

[ask] Could you kindly confirm the outcome this assay logged for O=C(O)c1ccc2c3n(nc2c1)-c1ccc(Cl)cc1CO3 ?
[reply] inactive

[ask] Could you kindly confirm the outcome this assay logged for NC(=O)Cn1c2[n+](c3ccccc31)CC(O)CS2 (configuration not stated) ?
[reply] inactive

[ask] Could you kindly confirm the outcome this assay logged for O=C(Nc1ccccc1C(=O)O)c1ccc(NC(=O)C2CC2)cc1 ?
[reply] inactive

[ask] Could you kindly confirm the outcome this assay logged for O=C(NC(=S)Nc1nc(-c2ccc(Br)cc2)cs1)c1ccco1 ?
[reply] active

[ask] Could you kindly confirm the outcome this assay logged for CC(=O)NC1C(Oc2ccccc2C)OC(CO)C(O)C1O (configuration not stated) ?
[reply] inactive

[ask] Could you kindly confirm the outcome this assay logged for O=C(Nc1ncc(Cc2ccc(C(F)(F)F)cc2)s1)c1ccc(-c2cccc([N+](=O)[O-])c2)o1 ?
[reply] inactive

[ask] Could you kindly confirm the outcome this assay logged for COc1ccc(-c2csc(NC(=S)NC(=O)c3ccco3)n2)cc1 ?
[reply] active

[ask] Could you kindly confirm the outcome this assay logged for CSc1cccc(NC(=O)CN2C(=O)c3ccccc3S2(=O)=O)c1 ?
[reply] inactive

[ask] Could you kindly confirm the outcome this assay logged for Cc1cc(C)c(S(=O)(=O)Nc2cccc(-n3cnnn3)c2)c(C)c1 ?
[reply] inactive

[ask] Could you kindly confirm the outcome this assay logged for O=C(COC(=O)c1cc(S(=O)(=O)NCc2ccccc2)ccc1O)NCc1ccccc1 ?
[reply] inactive

[ask] Could you kindly confirm the outcome this assay logged for CCNC(=S)N/N=C1\C(=O)c2cccc3cccc1c23 ?
[reply] active

---

# target_under_test: Voltage-gated inwardly rectifying potassium channel KCNH2 (Homo sapiens)
# method_summary: hERG protection against dofetilide inhibition, confirmation, cell-based, thallium flux, duplicate retest, dofetilide IC70 (AID 1835)
# test_parameters: hERG cell line, FluxOR thallium flux, dofetilide-blocked; at 10 µM; hits give high values
Screen size: about 2,400 compounds; about 750 (31%) were called active. This is one part of the list.
test_readout: activity increase over dofetilide control, less the hit threshold (%)
Provide only the numeric value, understood in %.

[ask] Need activity increase over dofetilide control, less the hit threshold, item COc1cc(/C=C/C(=O)N[C@@H](Cc2c[nH]c3ccccc23)C(=O)O)ccc1O
[reply] -8

[ask] Need activity increase over dofetilide control, less the hit threshold, item Cc1ccc(NC(=O)c2noc3c2CCC3)cc1C
[reply] -11

[ask] Need activity increase over dofetilide control, less the hit threshold, item CN(C)/C=C/C(=O)c1ccc(Cl)cc1Cl
[reply] -11

[ask] Need activity increase over dofetilide control, less the hit threshold, item COc1cc(/C=C/C(=O)O)ccc1OS(=O)(=O)c1cc(C)ccc1C
[reply] -26

[ask] Need activity increase over dofetilide control, less the hit threshold, item COc1ccc(/C=C/C(=O)Nc2ccccc2C(=O)O)cc1OC
[reply] 18

[ask] Need activity increase over dofetilide control, less the hit threshold, item CN(C1=C(NC(=O)c2ccccc2)C(=O)c2ccccc2C1=O)C1CCS(=O)(=O)C1 (configuration not stated)
[reply] -4

[ask] Need activity increase over dofetilide control, less the hit threshold, item Cc1ccc2cc(CCNC(=O)C(=O)c3c(C)[nH]c4ccccc34)c(=O)[nH]c2c1
[reply] -20

[ask] Need activity increase over dofetilide control, less the hit threshold, item CCCN(CCC)C(=S)NC(=O)c1ccc(Cl)cc1Cl
[reply] 60

[ask] Need activity increase over dofetilide control, less the hit threshold, item CCC(C)(C)NC(=O)c1ccc(Sc2nncn2C)c([N+](=O)[O-])c1
[reply] -4

[ask] Need activity increase over dofetilide control, less the hit threshold, item CCN(CC)C(=S)NC(=O)c1ccc(Cl)cc1Cl
[reply] 11

[ask] Need activity increase over dofetilide control, less the hit threshold, item Cc1ccc(S(=O)(=O)n2cnc3ccccc32)c(C)c1
[reply] -13

[ask] Need activity increase over dofetilide control, less the hit threshold, item CCCc1cc(C(=O)NNC(=S)Nc2cccc(C)c2)cs1
[reply] -22

[ask] Need activity increase over dofetilide control, less the hit threshold, item COc1ccc(C(=O)Nc2ccc(-n3nncc3C(C)(C)C)cc2)cc1
[reply] -4

[ask] Need activity increase over dofetilide control, less the hit threshold, item C=CCNC(=O)c1ccccc1NC(=O)COc1ccc(OC)cc1
[reply] -2

[ask] Need activity increase over dofetilide control, less the hit threshold, item Cc1ccc(CNC(=O)CCc2ccc(S(=O)(=O)NCC(C)C)cc2)cc1
[reply] -8

[ask] Need activity increase over dofetilide control, less the hit threshold, item Cc1cccc(NC(=O)C(=O)NNC(=O)c2ccc(C(C)(C)C)cc2)c1
[reply] 83

[ask] Need activity increase over dofetilide control, less the hit threshold, item CC(C)(C)NC(=O)C(=O)NNC(=O)c1ccccc1
[reply] -5

[ask] Need activity increase over dofetilide control, less the hit threshold, item Cc1ccsc1CN(C(=O)c1ccc([N+](=O)[O-])cc1)C1CCS(=O)(=O)C1 (configuration not stated)
[reply] -5

[ask] Need activity increase over dofetilide control, less the hit threshold, item CC(=O)c1c(C)nc(C)nc1NC(=O)C(C)C
[reply] -16

[ask] Need activity increase over dofetilide control, less the hit threshold, item CC(C)(C)NC(=O)C(=O)NNC(=O)c1cccc(Br)c1
[reply] 35

[ask] Need activity increase over dofetilide control, less the hit threshold, item CCCn1nnnc1NC(=O)c1cc(Cl)ccc1Cl
[reply] -8

[ask] Need activity increase over dofetilide control, less the hit threshold, item CC(C)(C)NC(=O)C(=O)NNC(=O)c1ccc(C(C)(C)C)cc1
[reply] 38

[ask] Need activity increase over dofetilide control, less the hit threshold, item CC(NC(=O)c1ccncc1)C(C)(C)C (configuration not stated)
[reply] -4

[ask] Need activity increase over dofetilide control, less the hit threshold, item O=c1cc(-c2ccccc2)nc2c(-c3ccccc3)c(C(F)(F)F)[nH]n12
[reply] 56

[ask] Need activity increase over dofetilide control, less the hit threshold, item O=C(NCCc1ccc(F)cc1)c1coc(=O)c(Br)c1
[reply] -17

[ask] Need activity increase over dofetilide control, less the hit threshold, item O=C(O)Cc1cc(I)c(Oc2ccc(O)c(I)c2)c(I)c1
[reply] 18

[ask] Need activity increase over dofetilide control, less the hit threshold, item CC/C(=N\NC(=S)Nc1cccc(C)c1)c1ccccc1
[reply] -1

[ask] Need activity increase over dofetilide control, less the hit threshold, item O=C1CC(c2ccco2)CC2=C1C1c3ccccc3C(=O)N1c1ccccc1N2 (configuration not stated)
[reply] -3

[ask] Need activity increase over dofetilide control, less the hit threshold, item CCN(CC)C(=S)NC(=O)c1ccc(F)cc1
[reply] -9

[ask] Need activity increase over dofetilide control, less the hit threshold, item Cc1ccccc1NC1=NC(=S)N(c2ccccc2)C12CCCCC2
[reply] 22

[ask] Need activity increase over dofetilide control, less the hit threshold, item Cc1ccc(NC(=O)CN2C(=O)S/C(=C\c3cccn3-c3cccc(C(=O)O)c3)C2=O)c(C)c1
[reply] -4

[ask] Need activity increase over dofetilide control, less the hit threshold, item Cc1ccc(Oc2ccc(OCC(=O)NC(CC(C)C)C(=O)O)cc2)cc1 (configuration not stated)
[reply] -20
